Reference source: patent US7947695B2

Overview of recorded IC50 for various compounds
# systemTested: AURORA B (Homo sapiens, UniProt Q96GD4)
# Sequence (Q96GD4 whole entry): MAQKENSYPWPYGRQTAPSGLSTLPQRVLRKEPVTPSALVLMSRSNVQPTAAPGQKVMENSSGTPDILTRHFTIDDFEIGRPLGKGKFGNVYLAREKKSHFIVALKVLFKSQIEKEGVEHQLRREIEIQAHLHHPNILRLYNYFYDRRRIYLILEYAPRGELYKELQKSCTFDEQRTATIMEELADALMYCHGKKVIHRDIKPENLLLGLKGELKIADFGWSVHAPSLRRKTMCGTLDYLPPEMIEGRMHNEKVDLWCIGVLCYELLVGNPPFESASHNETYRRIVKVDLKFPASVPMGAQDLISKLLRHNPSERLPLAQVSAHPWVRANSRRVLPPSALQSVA
# assayName: In vitro filtration assay for AURORA B inhibitory activity
# Type: biochemical
# measurementParameters: peptide (C(LRRWSLG)×4), 1 μM unlabeled ATP, 25° C. 40 minutes, read-out: Aurora B see C.3 (pIC50) (converted)
# Method: Compounds of the present invention were tested in an in vitro filtration assay assessing AURORA B activity by means of its substrate-phosphorylation activity using [^33P]-ATP as phosphor donor. The radioactive phosphorylated substrate is then captured on filtermats and the incorporated [^33P] quantitated using a phosphorage storage screen. The Aurora-B kinase reaction is performed at 25° C. for 40 minutes in a 96-well microtiterplate. […]

{"compound": "CN1CCN(Cc2ccc(Nc3ncc4cnn([C@H]5C[C@@H]6CC[C@H]5C6)c4n3)cc2)CC1 [compound 36]", "IC50": "> 10 µM"}
{"compound": "CC(C)(C)OC(=O)N(c1ccc(CN2CCOCC2)cc1)c1ncc2cnn([C@H]3C[C@@H]4CC[C@H]3C4)c2n1", "IC50": "3.16 µM"}
{"compound": "CN1CCN(c2ccc(Nc3ncc4ncn(C5CCCCC5)c4n3)cc2)CC1", "IC50": "> 10 µM"}
{"compound": "CN1CCC(NCc2ccc(Nc3ncc4[nH]c(=O)n(C5CCCCC5)c4n3)cc2)CC1", "IC50": "> 10 µM"}
{"compound": "CC(=O)N1CCN(c2ccc(Nc3ncc4cnn(C5CCCCC5)c4n3)cc2)CC1", "IC50": "> 10 µM"}
{"compound": "c1cc(Nc2ncc3cnn([C@H]4C[C@@H]5CC[C@H]4C5)c3n2)ccc1CNCCN1CCOCC1", "IC50": "0.501 µM"}

Now turn to the next compound.
Inquiry: Identify measured IC50 obtained with AURORA B (Homo sapiens, UniProt Q96GD4) for `COCCCC(=O)N1CCN(Cc2ccc(N(C(=O)OC(C)(C)C)c3ncc4cnn(C5CCCCC5)c4n3)cc2)CC1` .
Reply text: > 10 µM
